Numbers sourced from the supplement of paper PMC10567573.

B1: RAB11B (parent)
chain: AVPTDEARAFAEKNNLSFIETSAL

Variants of: B1
Experiment: protein stability index of a GFP-peptide fusion (GPS, HEK-293T) (PSI 1-6); higher = more stable;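 also: lentivirally expressed fusions sorted by FACS into six bins by GFP to DsRed ratio, PSI derived from sequencing read proportions per bin multiplied by bin number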
Conditions: c terminus: a fixed tail appended
In this section we review reported protein stability index values for a set of variants.
// print number alone

Please review the following examples before continuing.
Req: Quick one: protein stability index of N14R ?
Resp: 2.27

Req: Quick one: protein stability index of D5A ?
Resp: 2.31

Req: Quick one: protein stability index of E12S ?
Resp: 2.08

Req: Quick one: protein stability index of V2C ?
Resp: 3.02

Then this variant:
Req: Quick one: protein stability index of A9D ?
Resp: 3.4
